Assignment: determine reported activity coefficient for the given molecules.
ASSAY OVERVIEW: activity coefficient (dimensionless); of the first substance listed, at infinite dilution; xn = mol fraction of the nth substance listed
MEASUREMENT PARAMETERS: 323 K; 101 kPa; Liquid; Chromatography; x1 = 0
Lab note: write the figure by itself, no unit.

Given item CCc1ccccc1 [ethylbenzene] + CCn1cc[n+](C)c1.F[B-](F)(F)F , the value recorded as its activity coefficient is 7.05

Record CC(C)CC(C)(C)C [2,2,4-trimethylpentane] + CCn1cc[n+](C)c1.F[B-](F)(F)F . Reported activity coefficient: 168

Data point: Cc1ccccc1 [toluene] + CCCCn1cc[n+](C)c1.F[B-](F)(F)F ; activity coefficient = 4.14

CCc1ccccc1 [ethylbenzene] + CCCCn1cc[n+](C)c1.F[B-](F)(F)F has a reported activity coefficient of 6.65

get_value(item= CO [methanol] + CCCCCCCC[n+]1ccn(C)c1.F[B-](F)(F)F , readout=activity coefficient) returns 0.94

Form: molecule = CC(C)=O [acetone] + CCn1cc[n+](C)c1.F[B-](F)(F)F ; activity coefficient = 1.11

The molecule identified as CC(C)CC(C)(C)C [2,2,4-trimethylpentane] + CCCCCCCC[n+]1ccn(C)c1.F[B-](F)(F)F registered its activity coefficient at 17.7

Memo: CCC(C)=O [butanone] + CCn1cc[n+](C)c1.F[B-](F)(F)F , reported activity coefficient: 1.66

Looking up ClC(Cl)Cl [trichloromethane] + CCCCCCCC[n+]1ccn(C)c1.F[B-](F)(F)F , I found its activity coefficient recorded as 0.62

Reported activity coefficient ( CCO [ethanol] + CCCCCCn1cc[n+](C)c1.F[B-](F)(F)F ) = 1.47

* * *

ASSAY OVERVIEW: activity coefficient (dimensionless); of the first substance listed, at infinite dilution; xn = mol fraction of the nth substance listed
MEASUREMENT PARAMETERS: 323 K; 101 kPa; Liquid; Chromatography; x1 = 0
ENDPOINT: activity coefficient
Could you keep your reply to the number by itself?

activity coefficient in this record for CCO [ethanol] + CCCCn1cc[n+](C)c1.F[B-](F)(F)F : 1.91

Record ClCCCl [1,2-dichloroethane] + CCCCCCCC[n+]1ccn(C)c1.F[B-](F)(F)F . Reported activity coefficient: 0.93

Field activity coefficient (entry CCC(C)=O [butanone] + CCCCCCCC[n+]1ccn(C)c1.F[B-](F)(F)F ) reads 1.01

activity coefficient for CCc1ccccc1 [ethylbenzene] + CCCCCCCC[n+]1ccn(C)c1.F[B-](F)(F)F is 2.35

activity coefficient for c1ccccc1 [benzene] + CCCCn1cc[n+](C)c1.F[B-](F)(F)F is 2.43

Entry CCCCCCC [heptane] + CCCCCCCC[n+]1ccn(C)c1.F[B-](F)(F)F ; activity coefficient = 16.3

So for CO [methanol] + CCCCCCn1cc[n+](C)c1.F[B-](F)(F)F , the logged activity coefficient turned out to be 1.08

Record ClC(Cl)Cl [trichloromethane] + CCn1cc[n+](C)c1.F[B-](F)(F)F , field activity coefficient: 0.73

Per the record, CCC(C)=O [butanone] + CCCCn1cc[n+](C)c1.F[B-](F)(F)F has activity coefficient of 1.64

// field: activity coefficient; key: CCOC(C)=O [ethyl acetate] + CCn1cc[n+](C)c1.F[B-](F)(F)F ; value = 3.08

* * *

ASSAY OVERVIEW: activity coefficient (dimensionless); of the first substance listed, at infinite dilution; xn = mol fraction of the nth substance listed
MEASUREMENT PARAMETERS: 343 K; 101 kPa; Liquid; Chromatography; x1 = 0
So basically, if activity coefficient comes in under 2 it's t, and if it's 2 or more it's f.

Exercise: Consider c1ccccc1 [benzene] + CCCCCCCC[n+]1ccn(C)c1.F[B-](F)(F)F . Does its activity coefficient lie strictly below 2?
Key: t

Exercise: # check: activity coefficient < 2 for CCCO [propan-1-ol] + CCCCCCn1cc[n+](C)c1.F[B-](F)(F)F
Key: t

Exercise: Lab note: activity coefficient threshold 2. Does this compound come in strictly under it? CCC(C)=O [butanone] + CCn1cc[n+](C)c1.F[B-](F)(F)F
Key: t

Exercise: Dear colleague, could you confirm whether activity coefficient of C1CCCCC1 [cyclohexane] + CCCCn1cc[n+](C)c1.F[B-](F)(F)F falls below 2? Thanks.
Key: f

Exercise: Threshold test, activity coefficient < 2: CCC(C)=O [butanone] + CCCCCCn1cc[n+](C)c1.F[B-](F)(F)F
Key: t

Exercise: Lab log: compare recorded activity coefficient with 2; is it strictly lower for CCOC(C)=O [ethyl acetate] + CCCCn1cc[n+](C)c1.F[B-](F)(F)F ?
Key: f

Exercise: Lab log: compare recorded activity coefficient with 2; is it strictly lower for CCOCC [diethyl ether] + CCCCn1cc[n+](C)c1.F[B-](F)(F)F ?
Key: f

Exercise: For this compound, is activity coefficient lower than 2? CCCCCCC [heptane] + CCCCn1cc[n+](C)c1.F[B-](F)(F)F
Key: f

Exercise: Check if activity coefficient falls below 2 for ClC=C(Cl)Cl [trichloroethene] + CCn1cc[n+](C)c1.F[B-](F)(F)F .
Key: f

Exercise: Please let me know if CCC(C)=O [butanone] + CCCCn1cc[n+](C)c1.F[B-](F)(F)F shows activity coefficient below 2.
Key: t

Exercise: Consider ClCCCl [1,2-dichloroethane] + CCCCn1cc[n+](C)c1.F[B-](F)(F)F . Does its activity coefficient lie strictly below 2?
Key: t

Exercise: Regarding ClC=C(Cl)Cl [trichloroethene] + CCCCCCCC[n+]1ccn(C)c1.F[B-](F)(F)F , kindly confirm whether its activity coefficient is beneath 2.
Key: t

Exercise: Please indicate whether the reported activity coefficient of CCC(C)=O [butanone] + CCCCCCCC[n+]1ccn(C)c1.F[B-](F)(F)F is strictly below 2.
Key: t

Exercise: Consider C=CCCCC [hex-1-ene] + CCn1cc[n+](C)c1.F[B-](F)(F)F . Does its activity coefficient lie strictly below 2?
Key: f

Exercise: Identify whether the compound ClC(Cl)(Cl)Cl [tetrachloromethane] + CCCCCCCC[n+]1ccn(C)c1.F[B-](F)(F)F records activity coefficient below 2.
Key: f

Exercise: Consider CCOC(C)=O [ethyl acetate] + CCCCCCn1cc[n+](C)c1.F[B-](F)(F)F . Does its activity coefficient lie strictly below 2?
Key: f

Exercise: A record lists CCCO [propan-1-ol] + CCCCCCCC[n+]1ccn(C)c1.F[B-](F)(F)F . Is its activity coefficient below 2?
Key: t

Exercise: Does CCc1ccccc1 [ethylbenzene] + CCCCCCn1cc[n+](C)c1.F[B-](F)(F)F have activity coefficient strictly under 2?
Key: f

Exercise: Take the compound CCOC(C)=O [ethyl acetate] + CCCCCCCC[n+]1ccn(C)c1.F[B-](F)(F)F and say whether its activity coefficient is less than 2.
Key: t

Exercise: is_below(activity coefficient, 2) for CCO [ethanol] + CCCCCCCC[n+]1ccn(C)c1.F[B-](F)(F)F ?
Key: t

Exercise: Is activity coefficient strictly under 2 for the entry CCOCC [diethyl ether] + CCCCCCn1cc[n+](C)c1.F[B-](F)(F)F ?
Key: f

Exercise: Find out if reported activity coefficient for CC(C)CC(C)(C)C [2,2,4-trimethylpentane] + CCCCn1cc[n+](C)c1.F[B-](F)(F)F is less than 2
Key: f

Exercise: For c1ccccc1 [benzene] + CCCCn1cc[n+](C)c1.F[B-](F)(F)F , is the recorded activity coefficient below the cut-off of 2?
Key: f

Exercise: Hello, I'm reviewing records and need to know if activity coefficient of ClC=C(Cl)Cl [trichloroethene] + CCCCn1cc[n+](C)c1.F[B-](F)(F)F is below 2. Could you check?
Key: f
